B1: LOC100129726 (parent)
chain: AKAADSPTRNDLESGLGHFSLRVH

# Variants of: B1
# test.name: protein stability index of a GFP-peptide fusion (GPS, HEK-293T) (PSI 1-6); higher = more stable;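 further: lentivirally expressed fusions sorted by FACS into six bins by GFP to DsRed ratio, PSI derived from sequencing read proportions per bin multiplied by bin number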
# test.context: c terminus: a fixed tail appended
I'd appreciate it if you could supply protein stability index values for the items below.
Give bare numbers.

Provide protein stability index values for the following items, in order.
1. R9L
2. D11V

1. 2.73
2. 2.21
